Target: T1, human TFPI K1 (human, UniProt P10646 29-107, limits assumed)
T1 construct: domain: K1; also called Kunitz domain 1
T1 sequence (looked up): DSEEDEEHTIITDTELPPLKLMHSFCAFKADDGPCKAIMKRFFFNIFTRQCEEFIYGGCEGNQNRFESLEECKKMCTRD
Assay: Western blots and ELISA
endpoint-label: binding result

binder	measured-value
TP-2A8-IgG (antibody, V domains shown, Chimeric IgG: human variable regions on mouse constant regions, murine IgG1 isotype, made in HKB11 cells) VH: QVQLVESGGGLVQPGGSLRLSCAASGFTFRSYGMSWVRQAPGKGLEWVSSIRGSSSSTYYADSVKGRFTISRDNSKNTLYLQMNSLRAEDTAVYYCARKYRYWFDYWGQGTLVTVSS VL: DIELTQPPSVSVAPGQTARISCSGDNLRNYYAHWYQQKPGQAPVVVIYYDNNRPSGIPERFSGSNSGNTATLTISGTQAEDEADYYCQSWDDGVPVFGGGTKLTVLG	no binding
TP-3C2 chimeric IgG (antibody, V domains shown, Chimeric IgG: human variable regions on mouse constant regions, murine IgG1 isotype, made in HKB11 cells) VH: QVQLQQSGPGLVKPSQTLSLTCAISGDSVSSSSAAWSWIRQSPGRGLEWLGMIYYRSKWYNHYAVSVKSRITINPDTSKNQFSLQLNSVTPEDTAVYYCARGGSGVMDVWGQGTLVTVSS VL: DIQMTQSPSSLSASVGDRVTITCRASQSITNYLNWYQQKPGKAPKLLIYDVSNLQSGVPSRFSGSGSGTDFTLTISSLQPEDFAVYYCQQYSGYPLTFGQGTKVEIKR	no binding
TP-2B3 chimeric IgG (antibody, V domains shown, Chimeric IgG: human variable regions on mouse constant regions, murine IgG1 isotype, made in HKB11 cells) VH: QVQLQQSGPGLVKPSQTLSLTCAISGDSVSSNSAAWGWIRQSPGRGLEWLGMIYYRSKWYNSYAVSVKSRITINPDTSKNQFSLQLNSVTPEDTAVYYCARTMSKYGGPGMDVWGQGTLVTVSS VL: DIVLTQSPATLSLSPGERATLSCRASQNIGSNYLAWYQQKPGQAPRLLIYGASTRATGVPARFNGSGSGTDFTLTISSLEPEDFAVYYCQQLNSIPVTFGQGTKVEIKR	no binding

Hey, just so you know, these numbers are from patent US20120269817A1.
